Values were extracted from ChEMBL document CHEMBL4406911.

- experimental protocol: Oral bioavailability in rat
- Assay type: ADME, organism-based
- measurement parameters: in vivo
measured metric: bioavailability (%)
I only need the number, in %, no unit after it.

query: Give me measured bioavailability, please, for this compound: O=C(CNc1nonc1/C(=N/O)N[C@H]1Cc2ccc(F)cc21)NCCO
result: 63

* * *

For each record, write down the corresponding logD.
- experimental protocol: Lipophilicity, log D of compound at pH 7 by HPLC analysis
- Format: physicochemical
- measurement parameters: buffer
The reply should be a number, written without any unit.

query: Give me measured logD, please, for this compound: CC(=O)NCCSc1nonc1/C(=N/O)N[C@H]1Cc2ccc(F)cc21
result: 2.46

query: Give me measured logD, please, for this compound: NS(=O)(=O)NCCNc1nonc1/C(=N/O)N[C@H]1Cc2ccc(F)cc21
result: 2.4

query: Give me measured logD, please, for this compound: O=C(CSc1nonc1/C(=N/O)N[C@H]1Cc2ccc(F)cc21)NCCO
result: 2

query: Give me measured logD, please, for this compound: NS(=O)(=O)NCCSc1nonc1/C(=N/O)N[C@H]1Cc2ccc(F)cc21
result: 2.45

query: Give me measured logD, please, for this compound: Nc1nonc1/C(=N/O)N[C@H]1Cc2ccc(F)cc21
result: 2.7
